# Test system: angiogenesis in Matrigel deposits imbibed with fibroblast growth factor 1 (FGF1)
# protocol-summary: Matrigel deposit angiogenesis assay (FGF1-loaded Matrigel implanted in mice, histology score)
# Format: in vivo
# conditions: difference of mean score from control (2.50)
Documented % Diff. across a set of sequences
Numbers only; they are read as %.

For PTAQLIATLKNGRKI [PF-1] , write its % Diff..
0.00

More entries:
Give a short answer stating reported % Diff. for FAKKFAKKFKKFAKKFAK [JC15-18N] .
10.00

Return value of % Diff. for input IVRRADRAAVPIVNLKDELL [C-1] , no commentary.
−26.67

Could you please provide reported % Diff. for KKFKKFAKKFAKFAF [JC15-15C] ? Thanks!
10.00

Answer with the recorded % Diff. of FAKKFAKKFKKF [JC15-12N] only.
8.57

State its % Diff. for this sequence: FAKKFAKKFK [JC15-10N]
−25.71

State its % Diff. for this sequence: FAKKFAKFAF [JC15-10C]
0.00

Consider the sequence LDLQAPLYKKIIKKLLES [PF-2] . State its measured % Diff..
0.00

Look up % Diff. of MFGNGKGYRGKRATTVTGTP [PL-2] and report it.
−2.86

Consider the sequence QAWDSQSPHAHGYIPSKFPNKNLKKNY [PL-1] . State its measured % Diff..
0.00

###

Listed below: angiogenic activity score, Sample 4 values for each entry.
# System: angiogenesis in Matrigel deposits imbibed with fibroblast growth factor 1 (FGF1)
# protocol-summary: Matrigel deposit angiogenesis assay (FGF1-loaded Matrigel implanted in mice, histology score)
# Format: in vivo
# conditions: 0 to 4 plus scale; 20 μg peptide IP daily, Day 14 histology
Output: the number by itself.

Recorded angiogenic activity score, Sample 4, per entry:
Read off the recorded angiogenic activity score, Sample 4 for KKFKKFAKKFAKFAF [JC15-15C]
3

Read off the recorded angiogenic activity score, Sample 4 for FAKKFAKFAF [JC15-10C]
3

Identify angiogenic activity score, Sample 4 associated with the sequence PTAQLIATLKNGRKI [PF-1]
3

Supply measured angiogenic activity score, Sample 4 of FAKKFAKKFKKF [JC15-12N] in your reply.
2

Respond only with angiogenic activity score, Sample 4 recorded for IVRRADRAAVPIVNLKDELL [C-1]
1

Supply reported angiogenic activity score, Sample 4 belonging to this sequence: LDLQAPLYKKIIKKLLES [PF-2]
3

Recall and state the measured angiogenic activity score, Sample 4 for QAWDSQSPHAHGYIPSKFPNKNLKKNY [PL-1] .
3

Look up and state reported angiogenic activity score, Sample 4 for FAKKFAKKFK [JC15-10N]
3

Report measured angiogenic activity score, Sample 4; entry is MFGNGKGYRGKRATTVTGTP [PL-2]
3

With those in mind, consider the next sequence.
Quick one: give measured angiogenic activity score, Sample 4 for FAKKFAKKFKKFAKKFAK [JC15-18N]
3
